- system-under-test: hEP4 (Homo sapiens, UniProt P35408)
- Construct: expressed in transfected cells; host or cells: HEK293
- Sequence (P35408 whole entry): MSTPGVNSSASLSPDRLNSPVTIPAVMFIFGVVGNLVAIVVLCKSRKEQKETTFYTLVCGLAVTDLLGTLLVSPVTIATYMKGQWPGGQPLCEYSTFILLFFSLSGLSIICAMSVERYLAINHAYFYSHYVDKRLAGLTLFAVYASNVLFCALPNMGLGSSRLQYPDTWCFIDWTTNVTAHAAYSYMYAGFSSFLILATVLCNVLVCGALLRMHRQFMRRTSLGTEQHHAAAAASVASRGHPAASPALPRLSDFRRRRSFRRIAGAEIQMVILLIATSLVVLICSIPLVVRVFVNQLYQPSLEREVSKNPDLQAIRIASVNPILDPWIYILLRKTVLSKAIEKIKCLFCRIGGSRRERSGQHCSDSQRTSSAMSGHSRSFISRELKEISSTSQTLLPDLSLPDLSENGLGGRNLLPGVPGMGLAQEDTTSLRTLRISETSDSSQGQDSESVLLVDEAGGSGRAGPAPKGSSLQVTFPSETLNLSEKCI
- protocol-details: hEP4 cAMP assay
- Assay type: cell-based
- cond: HEK293 cells overexpressing hEP4; PGE2 agonist 20 nM; graded per Table 21; read-out: IC50 (nM) EP4 cAMP
reported-property: IC50

Reported hEP4 (Homo sapiens, UniProt P35408) IC50 for item COc1cc(F)cc(-c2ccc(Cn3ccc4scc(C(=O)NC5CC6(C5)CC(C(=O)O)C6)c43)cn2)c1 (stereo not drawn) was < 500 nM

Record Cc1sc(C)c(C(=O)NC2CC3(C2)CC(C(=O)O)C3)c1Nc1ccc(-c2ccccc2)cc1 (stereo not drawn) / hEP4 (Homo sapiens, UniProt P35408), IC50 recorded as > 10000 nM

Response field IC50 (hEP4 (Homo sapiens, UniProt P35408)) for item Cc1sc(C)c(C(=O)c2ccc(-c3ccccc3)cc2)c1C(=O)NC1CC2(C1)CC(C(=O)O)C2 (stereo not drawn) : 500 to 5000 nM

The compound O=C(NC1CC2(C1)CC(C(=O)O)C2)c1csc2ccn(Cc3ccc(-c4ncccn4)cc3)c12 (stereo not drawn) on hEP4 (Homo sapiens, UniProt P35408): IC50 was 500 to 5000 nM

Query COc1cc(F)cc(-c2ccc(Cn3ccc4scc(C(=O)NC5CC6(C5)CC(C(=O)O)C6)c43)nc2)c1 (stereo not drawn) on hEP4 (Homo sapiens, UniProt P35408); IC50 returned: < 500 nM

So the reported IC50 for Cc1cnn(-c2ccc(Cn3ccc4scc(C(=O)NC5CC6(C5)CC(C(=O)O)C6)c43)cc2)c1 (stereo not drawn) , on hEP4 (Homo sapiens, UniProt P35408), turned out to be < 500 nM

I looked up COc1cc(CN)cc(-c2ccc(Cc3c(C)sc(C)c3C(=O)NC3CC4(C3)CC(C(=O)O)C4)cc2)c1 (stereo not drawn) and its IC50 for hEP4 (Homo sapiens, UniProt P35408) was 500 to 5000 nM

###

- system-under-test: hEP4 (Homo sapiens, UniProt P35408)
- Construct: expressed in transfected cells; host or cells: HEK293
- protocol-details: hEP4 cAMP assay
- Assay type: cell-based
- cond: HEK293 cells overexpressing hEP4; PGE2 agonist 20 nM; graded per Table 21; read-out: IC50 (nM) EP4 cAMP
// reported IC50 per item

Record excerpt, results attached:
{"columns": ["compound", "value"],
 "data": [
  ["COc1cc(CNC(=O)OC(C)(C)C)cc(-c2ccc(Cc3c(C)sc(C)c3C(=O)NC3CC4(C3)CC(C(=O)O)C4)cc2)c1 (centres unmarked) [Example 59]", "500 to 5000 nM"],
  ["CSc1cc(F)cc(-c2ccc(Cc3c(C)sc(C)c3C(=O)NC3CC4(C3)CC(C(=O)O)C4)cc2)c1 (centres unmarked) [Example 55]", "< 500 nM"],
  ["O=C(N[C@H]1CC2(C1)C[C@H](C(=O)O)C2)c1csc2ccn(Cc3ccc(-c4ccccc4)cc3)c12 (single isomer, unassigned) [Example 79b]", "< 500 nM"],
  ["Cc1sc(C)c(C(=O)NC2CC3(C2)CC(C(=O)O)C3)c1Cc1ccc(-c2ccccc2)c(N)c1 (centres unmarked) [Example 8]", "500 to 5000 nM"],
  ["Cc1cc(C(F)(F)F)n(-c2ccc(Cn3ccc4scc(C(=O)NC5CC6(C5)CC(C(=O)O)C6)c43)cc2)n1 (centres unmarked) [Example 112]", "500 to 5000 nM"]
]}

Form field IC50, entry COc1cc(-c2ccc(Cc3c(C)sc(C)c3C(=O)NC3CC4(C3)CC(C(=O)O)C4)cc2)cc(C2(O)COC2)c1 (centres unmarked) [Example 61] : 500 to 5000 nM

Record Cc1sc(C)c(C(=O)NC2CC3(C2)CC(C(=O)O)C3)c1Cc1ccc(C2CCNCC2)cc1 (centres unmarked) [Example 68] . Reported IC50: > 10000 nM

O=C(NC1CC2(C1)CC(C(=O)O)C2)c1csc(Br)c1Cc1ccc(-c2ccccc2)cc1 (centres unmarked) [Example 15] yielded IC50 of < 500 nM

COc1ccnc(-c2ccc(Cn3ccc4scc(C(=O)NC5CC6(C5)CC(C(=O)O)C6)c43)cc2)c1 (centres unmarked) [Example 109] yielded IC50 of < 500 nM

Briefly, IC50 measured for Cc1sc(C)c(C(=O)NC2CC3(C2)CC(C(=O)O)C3)c1Cc1ccc(-c2ccccc2)cc1F (centres unmarked) [Example 7] : < 500 nM

// field: IC50; key: Cc1sc(C)c(C(=O)NC2CC3(C2)CC(C(=O)O)C3)c1Cc1ccc(-c2cnn(C)c2)cc1 (centres unmarked) [Example 39] ; value = 500 to 5000 nM

Value of IC50 reported for the compound COc1cc(F)cc(-c2ccc(Cc3c(C)sc(C)c3C(=O)N[C@H]3CC4(C3)C[C@H](C(=O)O)C4)cc2)c1 (single isomer, unassigned) [Example 34b] is < 500 nM

For record O=C(NC1CC2(C1)CC(C(=O)O)C2)c1csc2ccn(Cc3ccc4c(ccn4Cc4ccccc4)c3)c12 (centres unmarked) [Example 103] the listed IC50 is < 500 nM

Reported IC50 of Cc1sc(C)c(C(=O)NC2CC3(C2)CC(C(=O)O)C3)c1Cc1ccc(-c2cc(N)cc(F)c2)cc1 (centres unmarked) [Example 54] : < 500 nM

src = patent US20230365582A1
